- Tgt: Peroxisome proliferator-activated receptor alpha (Homo sapiens) (UniProt Q07869)
- Sequence (Q07869 whole entry): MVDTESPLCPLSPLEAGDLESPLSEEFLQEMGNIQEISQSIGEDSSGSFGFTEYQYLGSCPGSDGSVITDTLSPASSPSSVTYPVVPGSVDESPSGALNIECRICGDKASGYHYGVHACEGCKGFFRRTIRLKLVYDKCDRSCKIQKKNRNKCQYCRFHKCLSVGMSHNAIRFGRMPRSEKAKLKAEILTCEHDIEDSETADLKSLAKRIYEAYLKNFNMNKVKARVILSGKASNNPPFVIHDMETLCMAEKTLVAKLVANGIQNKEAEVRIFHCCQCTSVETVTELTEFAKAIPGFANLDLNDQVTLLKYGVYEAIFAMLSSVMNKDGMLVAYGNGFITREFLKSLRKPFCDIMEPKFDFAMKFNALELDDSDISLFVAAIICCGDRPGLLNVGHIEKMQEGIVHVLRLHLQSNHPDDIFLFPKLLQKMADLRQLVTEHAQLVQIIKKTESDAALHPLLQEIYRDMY
- Experiment summary: Activation of PPARalpha transfected into HEK cells at 100 uM by luciferase assay
- Format: cell-based
- Settings: HEK293
Observed property: Activity
Hey, just the number and the unit after it is fine.

Some solved cases for reference:
Give its Activity value. Item: C/C=C1\[C@H](O[C@@H]2O[C@H](CO)[C@@H](O)[C@H](O)[C@H]2O)OC=C(C(=O)OC)[C@H]1CC(=O)OC [OLEOSIDE DIMETHYL ESTER]
27.9%

# input compound: C/C=C1/[C@H](O[C@@H]2O[C@H](CO[C@@H]3O[C@H](CO)[C@@H](O)[C@H](O)[C@H]3O)[C@@H](O)[C@H](O)[C@H]2O)OC=C(C(=O)OC)[C@H]1CC(=O)OCCc1ccc(O)cc1 [EXCELSIDE B] ; wanted: its Activity
24.8%

Look up Activity: O=C(O)C1CN2C(N1)[C@H](O)[C@@H](O)[C@H](O)[C@H]2CO (some centres undefined)
21%

// next entry
Form field: reported Activity of C/C=C1\C(CC(=O)OC[C@H]2O[C@@H](OCCc3ccc(O)cc3)[C@H](O)[C@@H](O)[C@@H]2O)C(C(=O)OC)=CO[C@H]1O[C@@H]1O[C@H](CO)[C@@H](O)[C@H](O)[C@H]1O (some centres undefined) [NUZHENIDE]
12.2%

This collection of values is drawn from ChEMBL document CHEMBL1154829.
